# TEST_METHOD_NOTES: Pharmacokinetics of ERL and GEF in Wistar rats after four weeks consumption of water or flavoured water (plasma, UPLC-MS/MS, non-compartmental analysis)
# Format: in vivo
# SETTINGS: male, Wistar, rat, plasma, po, 20 mg/kg, raw data sheet, from average profile; +Pineapple FW; read-out: tmax
READOUT_LABEL: Tmax

COc1cc2ncnc(Nc3ccc(F)c(Cl)c3)c2cc1OCCCN1CCOCC1
2 h

Lab note: next molecule to report on.
Request: What value of measured Tmax is listed for C#Cc1cccc(Nc2ncnc3cc(OCCOC)c(OCCOC)cc23)c1 ?
Result: 2 h

----------
# TEST_METHOD_NOTES: Pharmacokinetics of ERL and GEF in Wistar rats after four weeks consumption of water or flavoured water (plasma, UPLC-MS/MS, non-compartmental analysis)
# Format: in vivo
# SETTINGS: male, Wistar, rat, plasma, po, 20 mg/kg, raw data sheet, from average profile; drug alone (water); read-out: tmax
READOUT_LABEL: Tmax (h)
Number only, in h; omit the unit.

C#Cc1cccc(Nc2ncnc3cc(OCCOC)c(OCCOC)cc23)c1 [ERL, Erlotinib]
1

Next item in the queue.
Request: Would you mind telling me what Tmax value was observed for COc1cc2ncnc(Nc3ccc(F)c(Cl)c3)c2cc1OCCCN1CCOCC1 [GEF, Gefitinib] ?
Result: 2

Cited source: paper PMC7518156
